# System: total cholesterol
# measurement.protocol: Anti-hyperlipemia activity, total cholesterol in blood
# Format: in vivo, rabbit (Japanese white male)
# setup.conditions: oral, 300 mg/kg once, 6 hrs.
hey, just use Criterion met if measured Reduction of cholesterol level after 6 hrs. is less than 40 mg/dL, otherwise Criterion not met

For orientation, consider the following solved cases.
>>> label_class("O=C(OCC1CCCCC1)c1ccc(NC2O[C@H](CO)[C@@H](O)[C@H](O)[C@H]2O)cc1 (stereo partly drawn)")
"Criterion met"
>>> label_class("O=C(OCc1ccccc1)c1ccc(NC2C[C@H](O)[C@H](O)CO2)cc1 (stereo partly drawn) [Compound 13, benzyl p-aminobenzoate-N-D-deoxyriboside]")
"Criterion met"
>>> label_class("C[C@@H]1OC(Nc2ccc(C(N)=O)cc2)[C@H](O)[C@H](O)[C@H]1O (stereo partly drawn) [Compound 5, p-aminobenzoic acid amide-N-L-rhamnoside]")
"Criterion met"
>>> label_class("O=C(OC1CCCCC1)c1ccc(NC2O[C@H](CO)[C@@H](O[C@H]3O[C@H](CO)[C@@H](O[C@H]4O[C@H](CO)[C@@H](O)[C@H](O)[C@H]4O)[C@H](O)[C@H]3O)[C@H](O)[C@H]2O)cc1 (stereo partly drawn)")
"Criterion not met"
>>> label_class("COC(=O)Cc1ccc(NC2O[C@@H](C)[C@H](O)[C@@H](O)[C@H]2O)cc1 (stereo partly drawn)")
"Criterion not met"

Asked: For NC(=O)c1ccc(NC2O[C@H](CO)[C@@H](O)[C@H](O)[C@@H]2O)cc1 (stereo partly drawn) [Compound 4, p-aminobenzoic acid amide-N-D-mannoside] , is the recorded Reduction of cholesterol level after 6 hrs. below the cut-off of 40 mg/dL?
Given back: Criterion not met

Asked: For NC(=O)c1cccc(NC2O[C@H](CO)[C@@H](O[C@@H]3O[C@H](CO)[C@@H](O)[C@H](O)[C@H]3O)[C@H](O)[C@H]2O)c1 (stereo partly drawn) [Compound 2, m-aminobenzoic acid amide-N-cellobioside] , is the recorded Reduction of cholesterol level after 6 hrs. below the cut-off of 40 mg/dL?
Given back: Criterion met

Asked: For C[C@@H]1OC(Nc2cccc(C(=O)OCc3ccccc3)c2)[C@@H](O)[C@H](O)[C@@H]1O (stereo partly drawn) [Compound 11, benzyl m-aminobenzoate-N-L-fucoside] , is the recorded Reduction of cholesterol level after 6 hrs. below the cut-off of 40 mg/dL?
Given back: Criterion not met

Asked: For O=C(Oc1ccccc1)c1ccc(NC2OC[C@@H](O)[C@H](O)[C@H]2O)cc1 (stereo partly drawn) [Compound 8, phenyl p-aminobenzoate-N-D-xyloside] , is the recorded Reduction of cholesterol level after 6 hrs. below the cut-off of 40 mg/dL?
Given back: Criterion not met
